All figures here come from PubChem BioAssay (NCATS).

Assay: qHTS profiling for inhibitors of Plasmodium falciparum proliferation (AID 504749);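 also: 0% = DMSO vehicle and full inhibition = artemisinin control; nearly all actives have a fitted effect of over 60% in size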
Conditions: P. falciparum in erythrocytes, SYBR Green DNA, 72 h; at 28.7 µM (top of the series); parasite line B
Records with an inconclusive call do not appear.
Provide the recorded activity, negative = inhibition for the entries that follow.
Answer format: numeric, % implied, no suffix.

Name the reported activity, negative = inhibition value associated with the compound Cn1c(CCCC(=O)O)nc2cc(N(CCCl)CCCl)ccc21
3.04

# repeat for O=C(O)c1ccc2[nH]cc(CCCCN3CC=C(c4ccccc4)CC3)c2c1
0.723

Subsequent entry: Clc1cccc(N2CCNCC2)c1
8.49

Same read-out for c1ccc2c(c1)OCC(C1=NCCN1)O2 (stereo not drawn) ?
-17.9

Also need CCN(CC)CCN1C(=O)CN=C(c2ccccc2F)c2cc(Cl)ccc21 , thanks.
-4.36

Same lookup for CCCC1CCCCN1 (stereo not drawn) , please.
3.92

Now consider O=C(NC(O)C(Cl)(Cl)Cl)NC(O)C(Cl)(Cl)Cl (stereo not drawn) .
6.79

Repeat with NCCc1cc(O)c(O)cc1O
11.4

Try O=C1NCN(c2ccccc2)C12CCN(CC1COc3ccccc3O1)CC2 (stereo not drawn) next.
5.67

Here is the next compound: CCN(C(C)=O)c1cccc(-c2ccnc3c(C#N)cnn23)c1
2.02

Cool, now CC(=O)[C@H]1CC[C@H]2[C@@H]3CC[C@H]4C[C@](C)(O)CC[C@]4(C)[C@H]3CC[C@]12C
12.8

Could you do the same for Cc1ccc(-c2nc3ccc(C)cn3c2CC(=O)N(C)C)cc1 , please?
-1.84

Lookup NN=C(N)N
11.2

###

Experiment: Primary qHTS for inhibitors of MERS-S pseudo-typed particle cell entry (AID 1479149); also: nearly all actives have a fitted effect of over 60% in size
Settings: MERS-S pseudotyped particle entry, luciferase; series mostly up to 57.1 µM
Records with an inconclusive call do not appear. Active and inactive are the calls of the source. Calls come from the whole dose curve.
# output must be one of 1.0 (active), 0.0 (inactive)

Hi, do you know how CCC1=C[C@@H]2CN(C1)Cc1c([nH]c3ccccc13)[C@@](C(=O)OC)(c1cc3c(cc1OC)N(C)[C@H]1[C@@](O)(C(=O)OC)[C@H](OC(C)=O)[C@]4(CC)C=CCN5CC[C@]31[C@@H]54)C2 came out in this test?
1.0

Also need CCOc1ccc2ccccc2c1C(=O)N[C@@H]1C(=O)N2[C@@H]1SC(C)(C)[C@@H]2C(=O)O , thanks.
0.0

Also, O=C1CCc2ccc(OCCCCN3CCN(c4cccc(Cl)c4Cl)CC3)cc2N1 please.
1.0

How about Nc1nc(F)nc2c1ncn2[C@@H]1O[C@H](CO)[C@@H](O)[C@@H]1O ?
0.0

###

Assay: Nrf2 qHTS screen for inhibitors: Validation (AID 493153);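 also: A549 cells with ARE-driven firefly luciferase reporter reporting Nrf2 activity; % of control where 0% means no effect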
Conditions: A549 ARE-Fluc reporter, 18-24 h; luciferase luminescence
Records with an inconclusive call do not appear. Activity calls are given as the source filed them. The call rests on the fitted dose curve; in most records, active means well fitted inhibition curve with a large enough effect in the main read-out, with a control signal flat (not every such curve was filed as active); inconclusive means small, poorly fitted or top-dose-only effect, or effect the other way, or a change in a side signal; inactive means no such curve, though single readings can be large or run the other way.

- COMPOUND: "Cc1cccc(C)c1NC(=O)CN1CCCC1=O"
  outcome: "inactive"
- COMPOUND: "CC(CCc1ccccc1)NC(C)C(O)c1ccc(O)cc1 (stereo not drawn)"
  outcome: "inactive"
- COMPOUND: "NN=C(N)N"
  outcome: "inactive"

###

System: UISO
Experiment: qHTS assay to identify novel small-molecules to repurpose for Merkel cell carcinoma treatment (AID 1296009); also: nearly all actives have a fitted effect of over 60% in size
Settings: MCC and control cell lines, CellTiter-Glo viability, 72 h; series mostly up to 46 µM
Inconclusive results are not listed. Calls of active or inactive are those of the source. The call rests on the fitted dose curve; in most records, active means well fitted inhibition curve with a large enough effect; inconclusive means small, poorly fitted or top-dose-only effect; inactive means flat fitted curve, though single readings scatter.
Log the outcome using a class from class 1 for active, class 0 for inactive

Status in this test for NN=C(N)N ?
class 0

Try the compound Fc1ccc(C(OCCN2CCN(CCCc3ccccc3)CC2)c2ccc(F)cc2)cc1
class 1

Cc1cc(SCc2sc(-c3ccc(C(F)(F)F)c(F)c3)nc2C)ccc1OCC(=O)O ?
class 0

Repeat for the following compound: O=C1CC[C@@]2(O)[C@H]3Cc4ccc(O)c5c4[C@@]2(CCN3CC2CC2)[C@H]1O5
class 0

Same question, CN(C)[C@@H]1C(=O)C(C(N)=O)=C(O)[C@@]2(O)C(=O)C3=C(O)c4c(O)cccc4[C@@](C)(O)[C@H]3C[C@@H]12 this time
class 0

Repeat for the following compound: Cc1cccc(C)c1NC1=NCCCS1
class 0

Okay, and Cc1cccc(C)c1NC(=O)CN1CCCC1=O ?
class 0

Check N[C@@H](Cc1ccc(Oc2cc(I)c(O)c(I)c2)c(I)c1)C(=O)O too.
class 0

Param item: CC(C)CC(N(C)C)C1(c2ccc(Cl)cc2)CCC1 (stereo unspecified)
class 0

Now the compound CC(=O)[C@H]1CC[C@H]2[C@@H]3CC[C@H]4C[C@](C)(O)CC[C@]4(C)[C@H]3CC[C@]12C
class 0

Then this compound: Oc1ccc(Cl)cc1Cc1ccccc1
class 1

Now the compound C=C1C[C@@H]2[C@H](CC[C@]3(C)C(=O)CC[C@@H]23)[C@@]2(C)C=CC(=O)C=C12
class 0

Please answer likewise for OCCOc1ccccc1
class 0

COc1ccccc1N1CCNCC1 ?
class 0

What about CC(C)=CCOc1c2occc2cc2ccc(=O)oc12 ?
class 0

Proceed to Cc1ccc2c(c1)C1CN(C)CCC1N2 (stereo unspecified)
class 0

Next compound: CC1NCCOC1c1ccccc1 (stereo unspecified)
class 0

Param item: C[C@]12CC[C@H]3[C@@H](CCC4=CC(=O)CC[C@@H]43)[C@@H]1CC[C@@H]2OC(=O)CCc1ccccc1
class 0

Then Cn1c(CCCC(=O)O)nc2cc(N(CCCl)CCCl)ccc21 ?
class 0

And for CC[N+](CC)(CC)CC ?
class 0

Note, next up: O=c1[nH]c2ccccc2n1CCCN1CCC(n2c(=O)[nH]c3cc(Cl)ccc32)CC1
class 0

# repeat for C[C@@H]1[C@@H](C(=O)C[C@H]2O[C@@H]3O[C@]4(C)CC[C@@H]5[C@H](C)CC[C@@H]([C@H]2C)[C@@]35OO4)O[C@@H]2O[C@]3(C)CC[C@H]4[C@H](C)CC[C@@H]1[C@@]24OO3
class 1

Now give it for NCC1(CC(=O)O)CCCCC1 too.
class 0

Queued: Nc1ccncc1
class 0

Continue with COc1ccc(C(=O)c2c(C)n(CCN3CCOCC3)c3ccccc23)cc1
class 0

Thanks! And C=C1CC[C@@]2(O)[C@H]3Cc4ccc(O)c5c4[C@@]2(CCN3CC2CC2)[C@H]1O5 ?
class 0

What about this compound? C[C@]12CCC(=O)C(O)=C1CC[C@@H]1[C@@H]2CC[C@]2(C)C(=O)CC[C@@H]12
class 0

Same thing, different compound: CN(C)CCN(C)CCc1ccc(Cl)c(Cl)c1
class 0

Queued: CCN(C(C)=O)c1cccc(-c2ccnc3c(C#N)cnn23)c1
class 0

// repeat for Cc1ccc(S(=O)(=O)N[C@@H](CCCCN)C(=O)CCl)cc1 and report
class 0

// query: CN(C)CCc1ccc(O)cc1
class 0

Field entry: CC(C)NCC(O)c1ccccc1Cl (stereo unspecified)
class 0

Then O=C(O)C(=O)c1cn(Cc2ccccc2)c2ccc(-c3ccc(OC(F)(F)F)cc3)cc12 ?
class 0

How about CC[C@@H](CO)NC(=O)[C@@H]1C=C2c3cccc4[nH]cc(c34)C[C@H]2N(C)C1 ?
class 0

What about CC1OC(C)OC(C)O1 (stereo unspecified) ?
class 0

Please do the same for COC[C@H]1OC(=O)c2coc3c2[C@@]1(C)C1=C(C3=O)C2CCC(=O)[C@@]2(C)C[C@H]1OC(C)=O (stereo partly specified) as well.
class 0

CC(C)(N)Cc1ccc(Cl)cc1 , same question.
class 0

Please give the result for c1ccc(C2CC2)c(OCC2=NCCN2)c1 too.
class 0

How about O=C(O)c1ccc2[nH]cc(CCCCN3CC=C(c4ccccc4)CC3)c2c1 ?
class 0

Proceed to COC[C@@H](NC(C)=O)C(=O)NCc1ccccc1
class 0

For CC(C)=CC1C(C(=O)OCc2cccc(Oc3ccccc3)c2)C1(C)C (stereo unspecified) then?
class 0

Here is the next compound: CNC(=O)c1ccc(N2C(=S)N(c3ccc(C#N)c(C(F)(F)F)c3)C(=O)C23CCC3)cc1F
class 0

Another compound: N[C@@H]1C[C@H]1c1ccccc1
class 0

# iterate: CNCC(O)c1ccc(O)cc1 (stereo unspecified)
class 0

Same question, Cc1ncc(CNC(=O)N(CCCl)N=O)c(N)n1 this time
class 0

Input C#CCOC(C(=O)OCCN(C)C)(c1ccccc1)c1ccccc1
class 0

###

Assay: Quantitative high throughput screen for delayed death inhibitors of the malarial parasite plastid, 96 hour incubation (AID 488745); also: nearly all actives have a fitted effect of over 70% in size
Details: Plasmodium falciparum growth; series mostly up to 28.7 µM
Inconclusive results are not listed. The source made the active and inactive calls. Calls follow the shape of the dose curve; as a rule, active = well fitted inhibition curve with a large enough effect; inconclusive = small, poorly fitted or top-dose-only effect, or effect the other way; inactive = no such curve, though single readings can be large or run the other way.
The reply should name one outcome from active, inactive

Assay result, entry CCCC(C)(COC(N)=O)COC(=O)NC(C)C (stereo unspecified) — outcome?
inactive

Try this compound too: OCCN1CCN(CCCN2c3ccccc3Sc3ccc(C(F)(F)F)cc32)CC1
active

Another compound to check: O=c1c(O)c(-c2ccc(O)c(O)c2)oc2cc(O)cc(O)c12
active

Another compound to check: Fc1ccc(C(OCCN2CCN(CCCc3ccccc3)CC2)c2ccc(F)cc2)cc1
inactive

Next compound up: CCn1cc(C(=O)O)c(=O)c2ccc(C)nc21
inactive

Repeat for the following compound: O=c1[nH]c2ccccc2n1CCCN1CCC(n2c(=O)[nH]c3cc(Cl)ccc32)CC1
active

Now consider CC(CCc1ccccc1)NC(C)C(O)c1ccc(O)cc1 (stereo unspecified) and answer again.
inactive

And CNCC(O)c1ccc(O)cc1 (stereo unspecified) ?
inactive

Quick one: CCC1(C2=NCCN2)Cc2ccccc2O1 (stereo unspecified)
inactive

Ok, now CC(=O)[C@H]1CC[C@H]2[C@@H]3CC[C@H]4C[C@H](O)CC[C@]4(C)[C@H]3C(=O)C[C@]12C
inactive

Moving on to the next compound: NCC(O)c1ccc(O)cc1 (stereo unspecified)
inactive

And for Cc1ncc(CNC(=O)N(CCCl)N=O)c(N)n1 ?
inactive

Try the compound CN(C)C(=O)C(CCN1CCC(O)(c2ccc(Cl)cc2)CC1)(c1ccccc1)c1ccccc1
active

What about c1ccc2c(c1)OCC(C1=NCCN1)O2 (stereo unspecified) ?
inactive

Try this compound next: NN=C(N)N
inactive

Input CC[N+](CC)(CC)CC
active
